Values of Kd reported for wild-type ING3 PHD finger (Homo sapiens, UniProt Q9NXR8) appear below.
MEASUREMENT TYPE: Kd

- COMPOUND STRING: "C[C@H](N)C(=O)N[C@@H](CCCNC(=N)N)C(=O)N[C@H](C(=O)N[C@@H](CCCCN)C(=O)N[C@@H](CCC(N)=O)C(=O)N[C@H](C(=O)N[C@@H](C)C(=O)N[C@@H](CCCNC(=N)N)C(=O)N[C@@H](CCCCN)C(=O)N[C@@H](CO)C(=O)N[C@H](C(=O)NCC(N)=O)[C@@H](C)O)[C@@H](C)O)[C@@H](C)O"
  TEST SYSTEM: "wild-type ING3 PHD finger (Homo sapiens, UniProt Q9NXR8)"
  MEASUREMENT TYPE: "Kd"
  MEASURED VALUE: "181 µM"
- COMPOUND STRING: "C[C@H](N)C(=O)N[C@@H](CCCNC(=N)N)C(=O)N[C@H](C(=O)N[C@@H](CCCC[N+](C)(C)C)C(=O)N[C@@H](CCC(N)=O)C(=O)N[C@H](C(=O)N[C@@H](C)C(=O)N[C@@H](CCCNC(=N)N)C(=O)N[C@@H](CCCCN)C(=O)N[C@@H](CO)C(=O)N[C@H](C(=O)NCC(N)=O)[C@@H](C)O)[C@@H](C)O)[C@@H](C)O"
  TEST SYSTEM: "wild-type ING3 PHD finger (Homo sapiens, UniProt Q9NXR8)"
  MEASUREMENT TYPE: "Kd"
  MEASURED VALUE: "0.93 µM"
- COMPOUND STRING: "CNCCCC[C@H](NC(=O)[C@@H](NC(=O)[C@H](CCCNC(=N)N)NC(=O)[C@H](C)N)[C@@H](C)O)C(=O)N[C@@H](CCC(N)=O)C(=O)N[C@H](C(=O)N[C@@H](C)C(=O)N[C@@H](CCCNC(=N)N)C(=O)N[C@@H](CCCCN)C(=O)N[C@@H](CO)C(=O)N[C@H](C(=O)NCC(N)=O)[C@@H](C)O)[C@@H](C)O"
  TEST SYSTEM: "wild-type ING3 PHD finger (Homo sapiens, UniProt Q9NXR8)"
  MEASUREMENT TYPE: "Kd"
  MEASURED VALUE: "23.2 µM"

----------
Biological target: wild-type ING3 PHD finger (Homo sapiens, UniProt Q9NXR8)
Sequence (Q9NXR8 360-409): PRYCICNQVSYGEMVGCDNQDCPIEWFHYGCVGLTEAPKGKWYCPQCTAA
pKd: −log10 of the molar value.

- MOLECULE: "C[C@H](N)C(=O)N[C@@H](CCCNC(=N)N)C(=O)N[C@H](C(=O)N[C@@H](CCCCN(C)C)C(=O)N[C@@H](CCC(N)=O)C(=O)N[C@H](C(=O)N[C@@H](C)C(=O)N[C@@H](CCCNC(=N)N)C(=O)N[C@@H](CCCCN)C(=O)N[C@@H](CO)C(=O)N[C@H](C(=O)NCC(N)=O)[C@@H](C)O)[C@@H](C)O)[C@@H](C)O [H3K4me2]"
  pKd: 5.52
